target.system: CCNE1 (Homo sapiens, UniProt P24864+P24941)
Construct: host or cells: HEK293
experiment: CCNE1 HIBIT PQ (protein quantification), degradation
Assay type: cell-based
experimental.conditions: Max = Maximum
Quick reference for CCNE1 HIBIT PQ Max (%) among some compounds
Supply the numeric figure in %, leaving out any unit text.

Worked cases, CCNE1 HIBIT PQ Max (%) given:
{"compound": "CC(C)Oc1c(-c2cn[nH]c2)ncn2nc(Nc3ccc(S(=O)(=O)N(C)CCCN4CCC(c5cccc6c5n(C)c(=O)n6C5CCC(=O)N(C)C5=O)CC4)cc3F)nc12 (racemic)", "measure.unit": "%", "CCNE1 HIBIT PQ Max (%)": 0}
{"compound": "CC(C)Oc1c(-c2cn[nH]c2)ncn2nc(Nc3ccc(S(=O)(=O)N4CCC[C@H](CN5CC[C@H](c6ccc7c(N8CCC(=O)NC8=O)nn(C)c7c6)CC5(C)C)C4)cc3F)nc12 (relative stereo) [Compound 97]", "measure.unit": "%", "CCNE1 HIBIT PQ Max (%)": 41}
{"compound": "Cc1cc(S(=O)(=O)N(C)CCCN2CCC(c3ccc4c(c3)n(C)c(=O)n4C3CCC(=O)NC3=O)CC2)cc(F)c1Nc1nc2c(OC(C)C)c(-c3cn[nH]c3)ncn2n1 (racemic)", "measure.unit": "%", "CCNE1 HIBIT PQ Max (%)": 76}
{"compound": "CC(C)Oc1c(-c2cn[nH]c2)ncn2nc(Nc3ccc(S(=O)(=O)c4cccc(N5CCN(CC6CCN(c7ccc8c(c7)CN(C7CCC(=O)NC7=O)C8=O)CC6)CC5)c4)cc3F)nc12 (racemic)", "measure.unit": "%", "CCNE1 HIBIT PQ Max (%)": 72}

Turning now to a further compound:
Ask: // query CCNE1 HIBIT PQ Max (%) value for entry CC(C)Oc1c(-c2cn[nH]c2)ncn2nc(Nc3ccc(S(=O)(=O)N(C)CCCN4CCC(c5ccc6c(c5)n(C)c(=O)n6C5CCC(=O)NC5=O)CC4)c(F)c3F)nc12 (racemic)
Result: 82

---

target.system: CDK9 (Homo sapiens, UniProt P50750)
Construct: host or cells: HEK293
Sequence (P50750 whole entry): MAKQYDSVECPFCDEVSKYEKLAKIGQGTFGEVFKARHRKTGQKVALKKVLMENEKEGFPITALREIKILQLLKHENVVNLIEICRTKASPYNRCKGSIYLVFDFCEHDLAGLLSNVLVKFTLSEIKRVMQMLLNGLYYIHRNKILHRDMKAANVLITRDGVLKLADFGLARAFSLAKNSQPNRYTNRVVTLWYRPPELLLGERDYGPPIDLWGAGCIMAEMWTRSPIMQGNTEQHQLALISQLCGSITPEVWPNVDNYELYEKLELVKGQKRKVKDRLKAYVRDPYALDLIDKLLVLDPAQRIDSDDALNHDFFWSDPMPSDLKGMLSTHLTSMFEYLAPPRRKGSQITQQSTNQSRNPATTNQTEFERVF
experiment: CDK9 HIBIT PQ (protein quantification), degradation
Format: cell-based
experimental.conditions: PQ = Protein Quantification
Quick rule for you: DC50 under 3 nM gets label 1, anything else gets label 0.

{"compound": "CC(C)Oc1c(-c2cn[nH]c2)ncn2nc(Nc3ccc(S(=O)(=O)N(C)CCCN4CCN(c5ccc6c(c5)n(C)c(=O)n6C5CCC(=O)NC5=O)C[C@@H]4C)cc3F)nc12 (stereo partly shown)", "class.name": "label 1"}

Would you kindly look at the next entry?
Ask: Item "CC(C)Oc1c(-c2cn[nH]c2)ncn2nc(N[C@H]3CCN(S(=O)(=O)c4cccc(CN5CCC(c6ccc7c(N8CCC(=O)NC8=O)nn(C)c7c6)CC5)c4)C[C@H]3C)nc12" : DC50 beneath 3 nM, strictly?
Result: label 0

---

target.system: CDK9 (Homo sapiens, UniProt P50750)
Construct: host or cells: HEK293
experiment: CDK9 HIBIT PQ (protein quantification), degradation
Assay type: cell-based
experimental.conditions: PQ = Protein Quantification
Below, each entry is listed alongside its reported log10(DC50).
The common logarithm of DC50 in nM is what is listed.

{"compound": "CC(C)Oc1c(-c2cn[nH]c2)ncn2nc(Nc3ccc(S(=O)(=O)c4cccc(CN5CCN(c6ccc7c(N8CCC(=O)NC8=O)nn(C)c7c6)CC5C)c4)cc3F)nc12 (racemic)", "assay.metric": "log10(DC50)", "result": 1.77}

Ask: Which measured log10(DC50) belongs to CC(C)Oc1c(-c2cn[nH]c2)ncn2nc(Nc3ccc(S(=O)(=O)N(C)CCCN4C5CCC4CN(c4ccc6c(c4)n(C)c(=O)n6C4CCC(=O)NC4=O)C5)cc3F)nc12 (centres unmarked) , tested on CDK9 (Homo sapiens, UniProt P50750)?
Result: 0.44

Ask: Now the same for CC(C)Oc1c(-c2cn[nH]c2)ncn2nc(Nc3ccc(S(=O)(=O)N4CC5C4CCN5CC4CCN(c5cccc6c5n(C)c(=O)n6C5CCC(=O)NC5=O)CC4)cc3F)nc12 (centres unmarked)
Result: 0.85

Ask: Note, next up: CC(C)Oc1c(-c2cn[nH]c2)ncn2nc(Nc3ccc(S(=O)(=O)N4CCC5(CCN(CC6CN(c7cccc8c7n(C)c(=O)n8C7CCC(=O)NC7=O)C6)C5)C4)cc3F)nc12 (centres unmarked)
Result: 1.97

Ask: Repeat for the following compound: "CC(C)Oc1c(-c2cn[nH]c2)ncn2nc(Nc3ccc(S(=O)(=O)N(C)CCCN4CCC(c5ccc6c(N7CCC(=O)NC7=O)nn(C)c6c5)CC4)cc3F)nc12"
Result: 0.14

---

target.system: CDK2 (Homo sapiens)
Construct: host or cells: HEK293
experiment: CDK2 HIBIT PQ (protein quantification), degradation
Type: cell-based
experimental.conditions: Max = Maximum
In this section, each of the molecules is paired with its reported CDK2 HIBIT PQ Max (%).
Quick note: give the figure in %, leave out the unit.

# count of solved cases: 6
{"molecule": "CC(C)Oc1c(-c2cn[nH]c2)ncn2nc(N[C@H]3CCN(S(=O)(=O)c4cccc(CN5CCN(c6ccc7c(N8CCC(=O)NC8=O)nn(C)c7c6)CC5)c4)C[C@H]3C)nc12 [Compound 40]", "measure.unit": "%", "CDK2 HIBIT PQ Max (%)": 96}
{"molecule": "CC(C)Oc1c(-c2cn[nH]c2)ncn2nc(Nc3ccc(S(=O)(=O)N4CCC5(CCN(C6CCN(c7ccc8c(c7)n(C)c(=O)n8C7CCC(=O)NC7=O)CC6)C5)C4)cc3F)nc12 (stereo not shown) [Compound 36]", "measure.unit": "%", "CDK2 HIBIT PQ Max (%)": 89}
{"molecule": "CC(C)Oc1c(-c2cn[nH]c2)ncn2nc(N[C@H]3CCN(S(=O)(=O)c4cccc(CN5CCC(c6ccc7c(N8CCC(=O)NC8=O)nn(C)c7c6)CC5)c4)C[C@H]3C)nc12 [Compound 5]", "measure.unit": "%", "CDK2 HIBIT PQ Max (%)": 92}
{"molecule": "CC(C)Oc1c(-c2cn[nH]c2)ncn2nc(Nc3ccc(S(=O)(=O)c4cccc(C(C)N5CCN(c6ccc7c(N8CCC(=O)NC8=O)nn(C)c7c6)C6CC65)c4)cc3F)nc12 (stereo not shown) [Compound 83]", "measure.unit": "%", "CDK2 HIBIT PQ Max (%)": 89}
{"molecule": "CC(C)Oc1c(-c2cn[nH]c2)ncn2nc(Nc3ccc(S(=O)(=O)N4CCC[C@@H](CN5CC[C@@H](c6ccc7c(N8CCC(=O)NC8=O)nn(C)c7c6)CC5(C)C)C4)cc3F)nc12 (single isomer, unassigned) [Compound 105]", "measure.unit": "%", "CDK2 HIBIT PQ Max (%)": 63}
{"molecule": "CC(C)Oc1c(-c2cn[nH]c2)ncn2nc(Nc3ccc(S(=O)(=O)c4cccc(CN5C6CC5CN(c5ccc7c(N8CCC(=O)NC8=O)nn(C)c7c5)C6)c4)cc3F)nc12 [Compound 45]", "measure.unit": "%", "CDK2 HIBIT PQ Max (%)": 85}

Ask: # CDK2 HIBIT PQ Max (%) lookup, item CC(C)Oc1c(-c2cn[nH]c2)ncn2nc(Nc3ccc(S(=O)(=O)c4cccc(C(C)N5CCC(c6ccc7c(N8CCC(=O)NC8=O)nn(C)c7c6)CC5)c4)cc3F)nc12 (single isomer, unassigned) [Compound 100]
Result: 90

Ask: Thanks! And CC(C)Oc1c(-c2cn[nH]c2)ncn2nc(Nc3ccc(S(=O)(=O)c4cccc(CN5CC(c6ccc7c(c6)CN(C6CCC(=O)NC6=O)C7=O)C5)c4)cc3F)nc12 (racemic) [Compound 12] ?
Result: 89

Ask: Let us now turn to CC(C)Oc1c(-c2cn[nH]c2)ncn2nc(Nc3ccc(S(=O)(=O)N4CCCC(CN5CCN(c6ccc7c(N8CCC(=O)NC8=O)nn(C)c7c6)C6CC65)C4)cc3F)nc12 (stereo not shown) [Compound 88]
Result: 61

Ask: Proceed to CC(C)Oc1c(-c2cn[nH]c2)ncn2nc(Nc3ccc(S(=O)(=O)c4cccc(C[C@H]5C[C@@H](c6ccc7c(N8CCC(=O)NC8=O)nn(C)c7c6)C5)c4)cc3F)nc12 [Compound 90]
Result: 91

---

target.system: CDK9 (Homo sapiens, UniProt P50750)
Construct: host or cells: HEK293
experiment: CDK9 HIBIT PQ (protein quantification), degradation
Assay type: cell-based
experimental.conditions: Max = Maximum
assay.metric: Dmax (%)
Express it in %; write the number only.

Would you please look over these solved cases?
{"compound": "CC(C)Oc1c(-c2cn[nH]c2)ncn2nc(Nc3ccc(S(=O)(=O)c4cccc(CC5CC(c6ccc7c(c6)CN(C6CCC(=O)NC6=O)C7=O)C5)c4)cc3F)nc12 (centres unmarked)", "measure.unit": "%", "Dmax": 37}
{"compound": "CC(C)Oc1c(-c2cn[nH]c2)ncn2nc(Nc3ccc(S(=O)(=O)c4cccc(CN5CCN(c6ccc7c(N8CCC(=O)NC8=O)nn(C)c7c6)C(C)C5)c4)cc3F)nc12 (racemic)", "measure.unit": "%", "Dmax": 57}
{"compound": "CCC1CN(c2ccc3c(N4CCC(=O)NC4=O)nn(C)c3c2)CCN1Cc1cccc(S(=O)(=O)N2CC[C@H](Nc3nc4c(OC(C)C)c(-c5cn[nH]c5)ncn4n3)[C@H](C)C2)c1 (some centres unmarked)", "measure.unit": "%", "Dmax": 96}

Ask: Look up Dmax for this compound: CC(C)Oc1c(-c2cn[nH]c2)ncn2nc(Nc3ccc(S(=O)(=O)N4CCCC(CN5CCC(c6ccc7c(N8CCC(=O)NC8=O)nn(C)c7c6)CC5(C)C)C4)cc3F)nc12 (centres unmarked)
Result: 56

Ask: Same question for CC(C)Oc1c(-c2cn[nH]c2)ncn2nc(Nc3ccc(S(=O)(=O)N4CC5C4CCN5CC4CCN(c5cccc6c5n(C)c(=O)n6C5CCC(=O)NC5=O)CC4)cc3F)nc12 (centres unmarked) please.
Result: 88

Ask: And then CC(C)Oc1c(-c2cn[nH]c2)ncn2nc(N[C@H]3CCN(S(=O)(=O)c4cccc(CN5CCN(c6ccc7c(N8CCC(=O)NC8=O)nn(C)c7c6)CC5C)c4)C[C@H]3C)nc12 (some centres unmarked) , what is it?
Result: 100

Ask: Would you kindly repeat that for CC(C)Oc1c(-c2cn[nH]c2)ncn2nc(Nc3ccc(S(=O)(=O)N(C)CCCN4C5CCC4CN(c4ccc6c(c4)n(C)c(=O)n6C4CCC(=O)NC4=O)C5)cc3F)nc12 (centres unmarked) ?
Result: 73

Ask: Field entry: CC(C)Oc1c(-c2cn[nH]c2)ncn2nc(Nc3ccc(S(=O)(=O)c4cccc(CN5CC(c6ccc7c(c6)CN(C6CCC(=O)NC6=O)C7=O)C5)c4)cc3F)nc12 (racemic)
Result: 8

Ask: How about CC(C)Oc1c(-c2cn[nH]c2)ncn2nc(Nc3ccc(S(=O)(=O)c4cccc(C(C)N5CCC(c6ccc7c(N8CCC(=O)NC8=O)nn(C)c7c6)CC5)c4)cc3F)nc12 (single isomer, unassigned) [Compound 100] ?
Result: 86

Ask: Note, next up: CC(C)Oc1c(-c2cn[nH]c2)ncn2nc(Nc3ccc(S(=O)(=O)N(C)CCCN4C5CC4CN(c4ccc6c(c4)n(C)c(=O)n6C4CCC(=O)NC4=O)C5)cc3F)nc12 (centres unmarked)
Result: 9

Ask: Also need CC(C)Oc1c(-c2cn[nH]c2)ncn2nc(Nc3ccc(S(=O)(=O)N(C)CCCN4CCC(c5cccc6c5n(C)c(=O)n6C5CCC(=O)N(C)C5=O)CC4)cc3F)nc12 (racemic) , thanks.
Result: 2

Ask: Same read-out for CC(C)Oc1c(-c2cn[nH]c2)ncn2nc(Nc3ccc(S(=O)(=O)N(C)CCCN4CCC(c5cccc6c5n(C)c(=O)n6C5CCC(=O)NC5=O)CC4)cc3F)nc12 (racemic) ?
Result: 87

Ask: Now the same for CC(C)Oc1c(-c2cn[nH]c2)ncn2nc(Nc3ccc(S(=O)(=O)N4CCCC(CN5CC(c6ccc7c(N8CCC(=O)NC8=O)nn(C)c7c6)C5)C4)cc3F)nc12 (racemic)
Result: 20

Ask: Same question, CC(C)Oc1c(-c2cn[nH]c2)ncn2nc(Nc3ccc(S(=O)(=O)c4cccc(CN5CCC(c6cccc7c6n(C)c(=O)n7C6CCC(=O)NC6=O)CC5)c4)cc3F)nc12 (racemic) this time
Result: 53

Ask: Similarly, "CC(C)Oc1c(-c2cn[nH]c2)ncn2nc(Nc3ccc(S(=O)(=O)c4cccc(CN5CC(c6ccc7c(N8CCC(=O)NC8=O)nn(C)c7c6)C5)c4)cc3F)nc12" ?
Result: 12

Ask: Same thing, different compound: CC(C)Oc1c(-c2cn[nH]c2)ncn2nc(Nc3ccc(S(=O)(=O)N4CCCC(CN5CCN(c6ccc7c(N8CCC(=O)NC8=O)nn(C)c7c6)C6CC65)C4)cc3F)nc12 (centres unmarked)
Result: 18

Ask: Could you do the same for CC(C)Oc1c(-c2cn[nH]c2)ncn2nc(Nc3cc(F)c(S(=O)(=O)N(C)CCCN4CCC(c5ccc6c(c5)n(C)c(=O)n6C5CCC(=O)NC5=O)CC4)cc3F)nc12 (racemic) , please?
Result: 75

Ask: Another compound: "CC(C)Oc1c(-c2cn[nH]c2)ncn2nc(Nc3ccc(S(=O)(=O)c4cccc(CN5C6CCC5CN(c5ccc7c(N8CCC(=O)NC8=O)nn(C)c7c5)C6)c4)cc3F)nc12"
Result: 71

Ask: // same read-out, input: CC(C)Oc1c(-c2cn[nH]c2)ncn2nc(Nc3ccc(S(=O)(=O)N4CCC[C@H](CN5CC[C@H](c6ccc7c(N8CCC(=O)NC8=O)nn(C)c7c6)CC5(C)C)C4)cc3F)nc12 (relative stereo) [Compound 97]
Result: 19

Ask: Ok, now CC(C)Oc1c(-c2cn[nH]c2)ncn2nc(Nc3ccc(S(=O)(=O)c4cccc(CN5CCN(c6ccc7c(N8CCC(=O)NC8=O)nn(C)c7c6)CC5C(C)C)c4)cc3F)nc12 (racemic)
Result: 61
